src = PubChem BioAssay (NCATS)

Experiment: qHTS assay for small molecule activators of the nuclear factor-kappa B (NF-kB) signaling pathway (AID 651749); further: series mostly up to about 77 µM; % of control where 0% means no effect
Conditions: NF-kB-bla ME-180 cells, beta-lactamase FRET ratio, 16 h; stronger effect = higher value
Description: National Center for Advancing Translational Sciences [NCATS] NIH Chemical Genomics Center [NCGC] U.S. Environmental Protection Agency [EPA] National Institutes of Environmental Health Sciences [NIEHS] National Toxicology Program [NTP] […] This system quantitates NF-kB activity using a FRET-based assay system where beta-lactamase expression disrupts FRET, allowing for fluorescent measurement of activity. […]
Inconclusive results are not listed.
Field: activation. Provide a value for each of the compounds that follow.
Numbers only, in %.

# annotated cases, reported activation shown
{"columns": ["compound", "activation (%)"],
 "data": [
  ["O=C1c2ccccc2C(=O)N1SC(Cl)(Cl)Cl", 3.09],
  ["O=C1C=CC(=O)c2ccccc21", -1.33],
  ["C#CCN1C(=O)COc2cc(F)c(N3C(=O)C4=C(CCCC4)C3=O)cc21", -1.45],
  ["CCN(CC)C(=O)SCc1ccc(Cl)cc1", -0.511]
]}

For each entry beneath this line, provide reported activation.
1. CCOc1nc(F)cc2nc(S(=O)(=O)Nc3c(Cl)cccc3Cl)nn12
2. O=C1NCCN1Cc1ccc(Cl)nc1

Return:
[0.211, -1.02]

Batch request: activation for each of the following compounds.
1. COP(=O)(OC)Oc1nc(Cl)c(Cl)cc1Cl
2. C/C(=N\C(N)=O)N(C)Cc1ccc(Cl)nc1
3. CCC(C)c1cc([N+](=O)[O-])cc([N+](=O)[O-])c1O (stereo not given)

Return:
1.02
-1.01
-0.876

Each compound below has a reported value. Please supply its activation.
1. CCCN(CC)CC1COC2(CCC(C(C)(C)C)CC2)O1 (stereo not given)
2. CNC(=O)O/N=C(\SC)C(=O)N(C)C
3. O=C(CCl)c1ccccc1
4. CCOP(=O)(OCC)SCSCC
5. COc1cc(Cl)c(OC)cc1Cl
6. Nc1ccc([N+](=O)[O-])cc1Cl
7. CCOP(=O)(OCC)Oc1ccc2c(C)c(Cl)c(=O)oc2c1

Return:
[-1.56, -1.34, 0.721, -2, -1.99, 0.235, 0.977]

###

Assay: qHTS assay for cell viability of HEK293 cells (AID 743288); further: potency means the concentration at half of the fitted maximal effect; nearly all actives have a fitted effect of over 50% in size
Conditions: ATP luminescence (CellTiter-Glo), 18 h
Results filed as inconclusive are left out. Activity calls are given as the source filed them. Calls follow the shape of the dose curve; as a rule, active = well fitted cell-killing curve with a large enough effect; inconclusive = small, poorly fitted or top-dose-only effect, or effect the other way; inactive = flat fitted curve, though single readings scatter.
Give Potency for every item shown.

Sample records with Potency:
{"columns": ["compoundSmiles", "Potency"],
 "data": [
  ["[CH3][Hg][Cl]", "39.8 µM (active)"],
  ["CCC[CH2][Sn]([Cl])([CH2]CCC)[CH2]CCC", "50.1 µM (active)"],
  ["N#CC(Cl)Cl", "14.1 µM (active)"]
]}

Dear reader, for each entry below, please note its Potency.
1. CCC[CH2][Sn]([Cl])([Cl])[CH2]CCC
2. C1CC[CH]([Sn]([CH]2CCCCC2)[CH]2CCCCC2)CC1
3. [Cu+2].[O-]c1cccc2cccnc12.[O-]c1cccc2cccnc12
4. N#Cc1c(Cl)c(Cl)c(Cl)c(C#N)c1Cl
5. O=[N+]([O-])c1ccc(Cl)c([N+](=O)[O-])c1
6. N#CSCSC#N

Return:
1: 39.8 µM (active); 2: 31.6 µM (active); 3: 31.6 µM (active); 4: 15.8 µM (active); 5: 50.1 µM (active); 6: 28.2 µM (active)

Below is a list of molecules. For each, state its recorded Potency.
1. CC1(C)CN=C(NN=C(/C=C/c2ccc(C(F)(F)F)cc2)/C=C/c2ccc(C(F)(F)F)cc2)NC1
2. CN(C)c1ccc(N=O)cc1

Return:
1: 44.7 µM (active); 2: 39.8 µM (active)

Enquiry: # get_value(readout='Potency', item= O=[N+]([O-])c1cc(C(F)(F)F)c(Cl)c([N+](=O)[O-])c1Nc1ncc(C(F)(F)F)cc1Cl )
Return: 35.5 µM (active)
